Could you please report measured Condition 1 Conversion (%) for the items listed next?
test: Hydrolysis Assay of Example A2, Condition 1 (SGF with pepsin, pH 1.5, 37° C.); type: physicochemical; conditions: SGF with pepsin pH 1.5, 37° C., 0.5 mM; time 1 min
One number for each entry, in %.

COc1ccc([C@@]23CC/C(=N\OC(C)(C)OC)C[C@@H]2N(C)CC3)cc1OC: 100

Parameters: items (list). Returns: Condition 1 Conversion (%) for each item.
1. COc1ccc([C@]23CCN(C)[C@H]2CC2(CC3)OCC(c3ccncc3)O2)cc1OC (stereo partly shown)
2. COc1ccc([C@@]23CCC(OC(=O)c4ccc(C(F)(F)F)cc4)=C[C@@H]2N(C)CC3)cc1OC
3. C=CC1OC2(CC[C@@]3(c4ccc(OC)c(OC)c4)CCN(C)[C@H]3C2)OC1C=C (stereo partly shown)

1. 0
2. 0
3. 0
